Below: a set of entries, each annotated with reported SDR + 10 mM ATP.
# targetEntity: FLuc-C-NLuc (firefly luciferase) (Photinus pyralis, UniProt P08659, form not given/L550V)
# Sequence (P08659 2-550 L550V, form open): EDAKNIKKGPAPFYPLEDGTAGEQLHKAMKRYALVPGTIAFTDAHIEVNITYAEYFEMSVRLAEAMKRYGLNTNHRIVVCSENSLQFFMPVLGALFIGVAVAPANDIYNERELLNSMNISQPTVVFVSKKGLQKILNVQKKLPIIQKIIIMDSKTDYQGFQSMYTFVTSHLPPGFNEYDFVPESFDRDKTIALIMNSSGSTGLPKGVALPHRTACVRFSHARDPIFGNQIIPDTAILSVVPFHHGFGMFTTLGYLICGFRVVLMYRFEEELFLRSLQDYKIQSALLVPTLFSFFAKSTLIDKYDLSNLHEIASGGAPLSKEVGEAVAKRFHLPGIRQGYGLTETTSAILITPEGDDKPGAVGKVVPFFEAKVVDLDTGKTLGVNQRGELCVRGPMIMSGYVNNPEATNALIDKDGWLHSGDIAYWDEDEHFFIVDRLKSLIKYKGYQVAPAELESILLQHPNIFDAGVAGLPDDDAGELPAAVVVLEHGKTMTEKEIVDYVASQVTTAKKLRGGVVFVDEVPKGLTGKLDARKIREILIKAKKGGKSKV
# assayText: SDR assay, FLuc-C-NLuc
# assaySetup: 1 nM FLuc-C-NLuc; normalized activity; Log [Compound], M -4.48
Just the number.

Worked examples follow.
{"compound": "CC(CNC(=O)C1CCN(C(=O)c2ncn3c2COC(c2ccccc2)C3)CC1)c1ccccc1 (centres unmarked) [compound 00449795]", "targetEntity": "FLuc-C-NLuc (firefly luciferase) (Photinus pyralis, UniProt P08659, form not given/L550V)", "reading": 34.2}
{"compound": "O=C(O)c1cccc2c1CCN2C(=O)Nc1ccc(F)cc1 [compound 00432687]", "targetEntity": "FLuc-C-NLuc (firefly luciferase) (Photinus pyralis, UniProt P08659, form not given/L550V)", "reading": 56.2}
{"compound": "Fc1ccc(-c2cn3cc(Cc4ccccc4)sc3n2)cc1 [compound 00102110]", "targetEntity": "FLuc-C-NLuc (firefly luciferase) (Photinus pyralis, UniProt P08659, form not given/L550V)", "reading": 24.6}
{"compound": "CNC(=O)c1cccc2c1CCN2C(=O)Nc1ccc(C)cc1 [compound 00430160]", "targetEntity": "FLuc-C-NLuc (firefly luciferase) (Photinus pyralis, UniProt P08659, form not given/L550V)", "reading": 45.7}
{"compound": "Cc1ccc(-n2ncc3c(N4CCCCCC4)ncnc32)cc1 [compound 00139018]", "targetEntity": "FLuc-C-NLuc (firefly luciferase) (Photinus pyralis, UniProt P08659, form not given/L550V)", "reading": 35.4}

Lookup: Output SDR + 10 mM ATP of CC1CCCN(c2ncnc3c2cnn3-c2ccccc2)C1 (centres unmarked) [compound 00081381]
Found: 36.6

Lookup: Output SDR + 10 mM ATP of COc1ccc(-c2nc(-c3ccc(C(=O)O)cc3)no2)cc1 [compound 00168104]
Found: 41.8

Lookup: Output SDR + 10 mM ATP of O=C(O)CCSc1nnc(-c2ccc(Cl)cc2Cl)o1 [compound 00103142]
Found: 38.4

---

# targetEntity: FLuc-C-HiBiT (firefly luciferase) (Photinus pyralis, UniProt P08659, form not given/L550V)
# Sequence (P08659 2-550 L550V, form open): as above
# assayText: Firefly luciferase (FLuc) enzymatic luminescence assay, FLuc-C-HiBiT
# Format: biochemical
# Parameters: key: % normalized; no enzyme control = 100% inhibition, DMSO = 0
# assaySetup: 10 nM FLuc-C-HiBiT; normalized activity; Log [Compound], M -4.48
Below: a set of entries, each annotated with reported FLuc Enzyme.
Just the number.

Worked examples follow.
{"compound": "CC1CCCN(c2ncnc3c2cnn3-c2ccccc2)C1 (centres unmarked)", "FLuc Enzyme": -96.2}
{"compound": "COc1ccc(-c2nc(-c3ccc(C(=O)O)cc3)no2)cc1", "FLuc Enzyme": -97.8}
{"compound": "Cc1ccc(-n2ncc3c(N4CCCCCC4)ncnc32)cc1", "FLuc Enzyme": -96.8}
{"compound": "CNC(=O)c1cccc2c1CCN2C(=O)Nc1ccc(C)cc1", "FLuc Enzyme": -98.2}
{"compound": "Fc1ccc(-c2cn3cc(Cc4ccccc4)sc3n2)cc1", "FLuc Enzyme": -91.3}

Lookup: Output FLuc Enzyme of "O=C(O)CCSc1nnc(-c2ccc(Cl)cc2Cl)o1"
Found: -95.5

Lookup: Output FLuc Enzyme of "O=C(O)c1cccc2c1CCN2C(=O)Nc1ccc(F)cc1"
Found: -99.9

Lookup: Output FLuc Enzyme of CC(CNC(=O)C1CCN(C(=O)c2ncn3c2COC(c2ccccc2)C3)CC1)c1ccccc1 (centres unmarked)
Found: -89.1
